# TARGET_UNDER_TEST: Recombinant human cathepsin S (CatS) (Homo sapiens)
# Sequence (P25774 115-331): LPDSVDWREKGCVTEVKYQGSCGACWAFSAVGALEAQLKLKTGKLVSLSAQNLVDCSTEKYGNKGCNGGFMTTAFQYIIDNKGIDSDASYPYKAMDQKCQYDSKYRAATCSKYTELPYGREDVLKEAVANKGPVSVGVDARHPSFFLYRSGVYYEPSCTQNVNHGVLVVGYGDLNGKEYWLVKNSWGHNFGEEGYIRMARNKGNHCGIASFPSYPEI
# METHOD_DESCRIPTION: Recombinant human cathepsin S (CatS) inhibition assay, fluorogenic substrate Z-Valine-Valine-Arginine-AMC;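 note: Baculovirus-expressed CatS in pH 5.0 sodium acetate buffer with DTT and NaCl, fluorescence read each minute over 20 min, inhibition derived from rate slope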
pIC50: −log10 of the molar value.
MEASUREMENT_KIND: pIC50

[[record]]
smiles_entry = "CS(=O)(=O)N1CCc2c(c(-c3ccc(Cl)c(CCCNS(=O)(=O)c4ccc(Cl)c(Cl)c4)c3)nn2CCCN2CCOCC2)C1"
value = 5.21

[[record]]
smiles_entry = "CS(=O)(=O)N1CCc2c(c(-c3ccc(Cl)c(C#Cc4cccc(CC(=O)O)c4)c3)nn2CCCN2CCOCC2)C1"
value = 5.94

[[record]]
smiles_entry = "CS(=O)(=O)N1CCc2c(c(-c3ccc(Cl)c(C#Cc4ccc5c(c4)CNCC5)c3)nn2CCCN2CCN(C3CC3)CC2)C1"
value = 7.05

[[record]]
smiles_entry = "CC(C)(C)OC(=O)N1CCC(C2CCN(C[C@H](O)Cn3nc(-c4ccc(Cl)c(C#CC5CCCCC5)c4)c4c3CCN(S(C)(=O)=O)C4)CC2)CC1"
value = 5.10

[[record]]
smiles_entry = "CS(=O)(=O)N1CCc2c(c(-c3ccc(Cl)c(C#Cc4ccc5[nH]ccc5c4)c3)nn2CCCN2CCOCC2)C1"
value = 6.72

[[record]]
smiles_entry = "NC(=O)C(=O)N1CCc2c(c(-c3ccc(Cl)c(C#Cc4ccc(Cl)c(CNC5CC5)c4)c3)nn2CCCN2CCCCC2)C1"
value = 7.52

